B1: PhoQ; a variant is named by its letters at X, in order, P23837 (parent)
chain: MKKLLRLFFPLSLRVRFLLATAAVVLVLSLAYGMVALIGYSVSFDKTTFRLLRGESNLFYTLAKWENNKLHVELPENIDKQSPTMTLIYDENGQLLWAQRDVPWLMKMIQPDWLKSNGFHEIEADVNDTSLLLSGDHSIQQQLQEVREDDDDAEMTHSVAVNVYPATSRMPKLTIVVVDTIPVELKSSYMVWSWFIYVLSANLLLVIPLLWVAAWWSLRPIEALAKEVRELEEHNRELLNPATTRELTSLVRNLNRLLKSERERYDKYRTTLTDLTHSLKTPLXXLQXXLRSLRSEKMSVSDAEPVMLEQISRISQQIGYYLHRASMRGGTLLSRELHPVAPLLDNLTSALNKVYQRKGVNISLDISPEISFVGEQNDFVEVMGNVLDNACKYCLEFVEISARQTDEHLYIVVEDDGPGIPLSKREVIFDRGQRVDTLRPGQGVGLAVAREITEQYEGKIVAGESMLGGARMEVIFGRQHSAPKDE

Variants of: B1
Assay: enrichment ratio after two sorts for PhoP signalling (ratio (wild type AVST 3.29)); higher = more functional
Details: with PhoP (E. coli)
Whole data set: some 140,000 sequences, median “enrichment ratio after two sorts for PhoP signalling” near 0, cut for the highest 2% near 11. Only a selection was taken, and the highest values are over-represented in it overall.
Observation Type: enrichment ratio

Task: Look up enrichment ratio for this variant: `NVCG`
Result: ≤ 0.25

Task: What would you report for `NVCM` ?
Result: ≤ 0.25

Task: What would you report for `DDLI` ?
Result: ≤ 0.25

Task: What would you report for `NTPE` ?
Result: ≤ 0.25

Task: What would you report for `AVAT` ?
Result: ≤ 0.25

Task: What would you report for `LPWC` ?
Result: ≤ 0.25

Task: What would you report for `AVCH` ?
Result: 13

Task: What would you report for `ISEK` ?
Result: ≤ 0.25

Task: What would you report for `AVTI` ?
Result: 10.4

Task: What would you report for `AVCM` ?
Result: 15.4

Task: What would you report for `TVAH` ?
Result: 3.22
